Where these numbers come from: patent US20230348418A1

target.system: Full length wild-type cereblon CRBN (Homo sapiens, UniProt Q96SW2)
Construct: Full length wild-type cereblon CRBN (80.0 nM, 10 μL) was incubated in assay buffer
Sequence (Q96SW2 whole entry): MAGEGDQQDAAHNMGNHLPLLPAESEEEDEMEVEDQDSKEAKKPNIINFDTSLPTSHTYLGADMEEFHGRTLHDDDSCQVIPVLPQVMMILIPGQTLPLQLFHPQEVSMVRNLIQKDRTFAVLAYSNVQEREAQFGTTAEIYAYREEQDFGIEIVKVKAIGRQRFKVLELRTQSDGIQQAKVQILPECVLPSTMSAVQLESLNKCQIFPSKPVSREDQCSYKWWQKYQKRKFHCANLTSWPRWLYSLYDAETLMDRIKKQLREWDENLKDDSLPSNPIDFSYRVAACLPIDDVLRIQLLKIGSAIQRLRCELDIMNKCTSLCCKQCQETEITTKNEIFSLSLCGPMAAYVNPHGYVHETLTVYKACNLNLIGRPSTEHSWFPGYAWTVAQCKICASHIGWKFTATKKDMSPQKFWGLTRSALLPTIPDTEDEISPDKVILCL
assay.details: Fluorescence polarization (FP) assay, cereblon binding
experimental.setup: bounds stated in the text lists b2059-b2061; read-out: IC50 value
pIC50: −log10 of the molar value.
Recorded measurements of pIC50, one per entry

1. Cc1cc(Cl)cc(NC(=O)OCc2ccc3c(c2)C(=O)N(C2CCC(=O)NC2=O)C3)c1 (stereo not shown) ... > 5.77
2. Cc1c(CN2CCOCC2)cc(NC(=O)OCc2ccc3c(c2)C(=O)N(C2CCC(=O)NC2=O)C3)cc1OC(F)F (stereo not shown) ... > 5.77
3. O=C1CCC(N2Cc3ccc(COC(=O)Nc4ccc(N5CCCC5)nc4)cc3C2=O)C(=O)N1 (stereo not shown) ... > 5.96

Read the next record carefully.
Jot down pIC50 (Full length wild-type cereblon CRBN (Homo sapiens, UniProt Q96SW2)) of COc1cc(C)c(Cl)cc1NC(=O)OCc1ccc2c(c1)C(=O)N(C1CCC(=O)NC1=O)C2 (stereo not shown) .
> 5.77
